- EXPERIMENTAL_PROTOCOL: Blood to plasma partitioning
- Assay type: in vitro ADME, human
- STATED_CONDITIONS: human, whole blood, pH 7.4, human whole blood, 37 °C; read-out: B/P (whole blood to plasma partitioning ratio)
blood plasma ratio at 1000 ng/mL by entry:
PARAMETER_MEASURED: blood plasma ratio at 1000 ng/mL

* CCNCc1cc(Nc2ccnc3cc(Cl)ccc23)ccc1O | 3.26
* C[C@H]1Cc2c([nH]c3cc(Cl)c(F)cc23)[C@@]2(N1)C(=O)Nc1ccc(Cl)cc12 | 0.66
* COc1ccc2nc3cc(Cl)ccc3c(Nc3cc(CN4CCCC4)c(O)c(CN4CCCC4)c3)c2n1 | 9
* Clc1ccc2c(N3CCN(CCCN4CCN(c5ccnc6cc(Cl)ccc56)CC4)CC3)ccnc2c1 | 0.57
